Origin of the recorded values: ChEMBL document CHEMBL1201862

Tested on: IGROV-1
Test: NCI tumour cell line growth inhibition, 48 h
Calls of active or inactive are those of the source. Cut-off read from the data, not from the text of the source: active = GI50 up to about 1.1 µM and inactive = higher.
GI50 reference

Entry [O-][S+](Nc1ccccc1)c1ccccc1Oc1ccccc1 (stereo not given) needs its GI50 filled in; supply it. 2.62 µM (inactive)

Entry `O=c1[nH]cc(F)c(=O)[nH]1` needs its GI50 filled in; supply it. 14.3 µM (inactive)

Entry COC(=O)C(CCC1(C)OCCO1)C(C)=O (stereo not given) needs its GI50 filled in; supply it. > 100 µM (inactive)

Entry `COC(=O)CC[C@@H](C)[C@H]1CC[C@H]2[C@@H]3CC[C@@H]4C[C@H](O)CC[C@]4(C)[C@H]3CC[C@]12C` needs its GI50 filled in; supply it. 17.2 µM (inactive)

Entry `CCN(Cc1cc(Cl)cc(C)c1O)Cc1c(O)ccc2ccccc12` needs its GI50 filled in; supply it. 15.3 µM (inactive)
